# Tested on: M14 melanoma
# Assay Method Text: NCI-60 one-dose screen, 48 h
# Test Conditions: 10 µM unless noted
Compounds without any hit were thinned out: in the full panel of roughly 83,000, 20% have a hit. Calls of active or inactive are those of the source. The calls were made as follows: active = growth percent below 10; inactive = the rest.
Answer with one of the outcomes given here: active, inactive

Query string: Field: outcome | Entry: COc1ccc2[nH]c(O)c(N=Nc3nc(-c4ccc(C#N)cc4)cs3)c2c1
Result string: inactive

Query string: Field: outcome | Entry: NCCCCn1c(SCCc2c[nH]c3ccccc23)nnc1-c1ccc2ccccc2n1
Result string: active

Query string: Field: outcome | Entry: Cc1ccc2nc(NC(=O)Nc3cccc(Cl)c3)sc2c1
Result string: inactive

Query string: Field: outcome | Entry: O=c1[nH]c2ccccc2cc1COc1ccc(Nc2nccc(-c3ccc(Cl)cc3)n2)cc1
Result string: inactive

Query string: Field: outcome | Entry: Nc1nn2c(-c3cc4cc(Br)ccc4oc3=O)ccnc2c1N=Nc1ccc(S(N)(=O)=O)cc1
Result string: inactive

Query string: Field: outcome | Entry: Cn1cc(-c2cc3nc(-c4cn(C)c5ncccc45)cc(N)n3n2)c2cc(F)ccc21
Result string: inactive

Query string: Field: outcome | Entry: COC(=O)c1ccc(-c2c(-c3ccccc3)c(F)c3oc(C(=O)OC)c(N)c3c2-c2ccccc2)cc1
Result string: inactive

Query string: Field: outcome | Entry: C[C@@H]1[C@H]2C[C@@H](C[C@H]1NCc1nc3ccccc3n1C1CCCCCC1)C2(C)C
Result string: inactive

Query string: Field: outcome | Entry: O=C(N/N=C/c1ccsc1)c1[nH]c2ccc(Br)cc2c1-c1ccccc1
Result string: active

Query string: Field: outcome | Entry: Nc1cc(-c2c[nH]c3ccc(F)cc23)nc2cc(-c3c[nH]c4ccccc34)nn12
Result string: active

Query string: Field: outcome | Entry: O=C1Nc2ccc(F)cc2/C1=C/C(=O)c1cc2ccccc2oc1=O
Result string: inactive

====

# Tested on: UACC-257 melanoma
# Assay Method Text: NCI-60 one-dose screen, 48 h
# Test Conditions: 10 µM unless noted
This is part of a sample that, as a whole, favours compounds with a hit. Of some 83,000 tested, about 20% had one in any assay. Active and inactive are the calls of the source. How the source made its calls: active means growth percent below 10; inactive means the rest.
Answer with one of the outcomes given here: active, inactive

compound=COc1ccc(NC(=O)Nc2nc3ccc([N+](=O)[O-])cc3s2)cc1 assigned_label=inactive
compound=CC[C@]12C=CCN3CC[C@@]4(c5ccc(OC)cc5N(C)[C@H]4[C@@](O)(C(=O)OC)[C@@H]1OC(=O)CCC[P+](c1ccc(OC)cc1)(c1ccc(OC)cc1)c1ccc(OC)cc1)[C@@H]32 assigned_label=active
compound="CCOc1ccccc1[C@H]1C(C(=O)c2ccc(Cl)cc2)C2(N[C@@H]1c1ccccc1)C(=O)Nc1ccc(Cl)cc12 (some centres undefined)" assigned_label=inactive
compound=Nc1nnc(CS(=O)(=O)c2ccccc2)s1 assigned_label=inactive
compound=CCCCCCCCc1ccc(C(=O)Nc2ccc(C)cc2C(=O)O)cc1 assigned_label=inactive
compound=O=C1/C(=C/c2cccc3c2OCO3)Cc2c(F)cc(Br)cc21 assigned_label=inactive
compound=CCCCCCCCc1ccc(C(=O)Nc2ccc(C)c(OP(=O)(O)O)c2)cc1 assigned_label=inactive
compound=COc1ccc(-c2cc(-c3cc(OC)c(OC)c(OC)c3)[nH]c(=O)c2C#N)cc1 assigned_label=inactive

With those in mind, consider the next compound.
Query string: Field: outcome | Entry: CS(=O)(=O)Nc1cc(-c2ccc3ncnc(N4CCc5cc(F)c(Cl)cc54)c3c2)cnc1Cl
Result string: active

====

# Tested on: RXF 393 renal
# Assay Method Text: NCI-60 one-dose screen, 48 h (100 = growth as untreated, 0 = no growth, -100 = all killed)
# Test Conditions: 10 µM unless noted
This is part of a sample that, as a whole, favours compounds with a hit. Of some 83,000 tested, about 20% had one in any assay.
Can you tell me growth for the items I'm about to list?
One number for each entry, in %.

molecule=Nc1cc2ccccc2c(=O)n1NC(=O)c1ccc(Br)cc1 reported_property=growth quantitative_readout=112

Give me growth for each of these molecules, listed below.
1. Nc1nn2c(-c3cc4ccccc4oc3=O)ccnc2c1N=Nc1ccccc1
2. Cn1cc(-c2cc(N)n3nc(-c4c[nH]c5ccc(F)cc45)cc3n2)c2cc(Br)cnc21
3. Cn1cc(-c2cc(N)n3nc(-c4c[nH]c5ccccc45)cc3n2)c2cc(Br)ccc21
4. O=c1c(-c2nc(-c3ccccc3)c(-c3ccccc3)[nH]2)coc2ccc(F)cc12
5. CCCN(CCC)S(=O)(=O)c1ccc(C(=O)O)cc1.CCCN(CCC)S(=O)(=O)c1ccc(C(=O)O)cc1.[Cl][Pt+2][Cl].[NH2-].[NH2-]

Result string:
2.06
11.7
-80.6
92.3
-59.6

Give me growth for each of these molecules, listed below.
1. CC1=C(C(=O)OCc2ccccc2)C(c2ccc(N(C)C)cc2)n2c(nc3ccccc32)N1 (stereo not drawn)
2. CC[C@]12C=CCN3CC[C@@]4(c5ccc(OC)cc5N(C)[C@H]4[C@@](O)(C(=O)OC)[C@@H]1OC(=O)CCC[P+](c1ccc(OC)cc1)(c1ccc(OC)cc1)c1ccc(OC)cc1)[C@@H]32

Result string:
74.6
-92.6

====

Can you tell me growth for the items I'm about to list?
# Tested on: SN12C renal
# Assay Method Text: NCI-60 one-dose screen, 48 h (100 = growth as untreated, 0 = no growth, -100 = all killed)
# Test Conditions: 10 µM unless noted
This is part of a sample that, as a whole, favours compounds with a hit. Of some 83,000 tested, about 20% had one in any assay.
Answers are plain numbers, in %.

compound=COc1ccc2[nH]c(=O)c(CSc3ccccc3Nc3nccc(-c4ccc5c(c4)OCO5)n3)cc2c1 reported_property=growth quantitative_readout=89.4

Give me growth for each of these compounds, listed below.
1. COc1ccc(N=Nc2c(N)nn3c(-c4ccc([N+](=O)[O-])cc4)ccnc23)cc1
2. O=C(N/N=C/c1ccoc1)c1[nH]c2ccc(Br)cc2c1-c1ccccc1
3. CN(C)c1nc(NCCNS(=O)(=O)c2ccc(C(=O)/C=C/c3ccc(F)cc3)cc2)nc(N2CCOCC2)n1
4. COc1ccc(NC(=O)NN2C(=O)c3ccccc3N(C)C2c2ccc(OC)cc2)cc1 (centres undefined)

Result string:
1. 92.7
2. -95.8
3. 64.3
4. 103

====

# Test system: U251 CNS
# Assay Method Text: NCI-60 one-dose screen, 48 h
# Test Conditions: 10 µM unless noted
About 83,000 compounds went through this panel and 20% of them were active in at least one assay; those are over-represented in the sample as a whole. Calls of active or inactive are those of the source. The calls were made as follows: active = growth percent below 10; inactive = the rest.
Answer with one of the outcomes given here: active, inactive

molecule=O=c1[nH]c2ccccc2cc1COc1ccc(Nc2nccc(-c3ccc(Cl)cc3)n2)cc1 assigned_label=inactive
molecule=COc1cc(CNC(=O)C[C@H](C)CCC=C(C)C)ccc1OCc1cn(-c2ccccc2F)nn1 assigned_label=inactive
molecule=C=CCSc1nnc(-c2ccc(-c3nc4ccccc4[nH]3)cc2)o1 assigned_label=inactive
molecule=CC[C@]12C=CCN3CC[C@@]4(c5ccc(OC)cc5N(C)[C@H]4[C@@](O)(C(=O)OC)[C@@H]1OC(=O)CCC[P+](c1ccc(OC)cc1)(c1ccc(OC)cc1)c1ccc(OC)cc1)[C@@H]32 assigned_label=active
molecule="O=C(O)CC1S/C(=N/N=C/c2nc3ccccc3s2)NC1=O (configuration not stated)" assigned_label=inactive
molecule=CCc1ccccc1NC(=O)N/C(N)=N/c1nc2ccccc2s1 assigned_label=active
molecule=COc1ccc(/C=C/C(=O)c2ccc(S(=O)(=O)NCCNc3nc(N(C)C)nc(N4CCOCC4)n3)cc2)cc1 assigned_label=inactive
molecule="CN(C)c1nc(NCCNS(=O)(=O)c2ccc(C3=Nc4c(N)nc(N)nc4NC(c4ccc(Cl)cc4)C3)cc2)nc(N2CCOCC2)n1 (configuration not stated)" assigned_label=inactive
molecule=COc1ccc2[nH]c(=O)cc(-n3ncc(C(=O)/C=C/c4cc(OC)c(OC)c(OC)c4)c3C)c2c1 assigned_label=active
molecule=Cc1ccc2nc(SCc3ccccc3F)n(-c3ccccc3)c(=O)c2c1 assigned_label=inactive

Query string: Field: outcome | Entry: COc1ccc(NC(=O)CSc2nnc(-c3ccc(-c4nc5ccc(Cl)cc5[nH]4)cc3)o2)cc1
Result string: active

Query string: Field: outcome | Entry: O=C(NN1C(=O)/C(=C/C=C/c2ccc([N+](=O)[O-])o2)SC1=S)c1ccc([N+](=O)[O-])cc1
Result string: active

====

# System: RPMI-8226 leukemia
# Assay Method Text: NCI-60 one-dose screen, 48 h
# Test Conditions: 10 µM unless noted
The panel holds about 83,000 compounds, 20% with a hit somewhere; the sample as a whole holds those more often. Activity calls are given as the source filed them. The calls were made as follows: active = growth percent below 10; inactive = the rest.
Answer with one of the outcomes given here: class 1 (active), class 0 (inactive)

Here's what some known entries look like.
compound=Cc1[nH]nc2ccc3nc(-c4cnn(CCO)c4)c4c(c3c12)CCCC4 assigned_label="class 0"
compound="CCN1C(=O)N(CC)C2NNC(Sc3c(C(=O)O)c4ccccc4n(CC(C)C)c3=O)=NC21 (stereo not drawn)" assigned_label="class 1"
compound=O=C1c2cccc3c(N4CCN(c5ccccc5)CC4)ccc(c23)C(=O)N1c1cccc(-c2nn(-c3ccccc3)cc2-c2nc3ccccc3s2)c1 assigned_label="class 0"

Query string: Field: outcome | Entry: COc1cc(/C=N/NC(=O)c2ccc(OCc3nc4ccc(C)cc4[nH]3)cc2)cc(OC)c1OC
Result string: class 1

Query string: Field: outcome | Entry: C[C@@H]1[C@H]2C[C@@H](C[C@H]1NCc1nc3ccccc3n1C1CCCCCC1)C2(C)C
Result string: class 0

Query string: Field: outcome | Entry: COc1cc(/C=C/C(=O)c2cnn(-c3cc(=O)[nH]c4ccc(C)cc34)c2C)cc(OC)c1OC
Result string: class 1

Query string: Field: outcome | Entry: O=[N+]([O-])c1cccc(-c2nnc3c(/C=C/c4ccc(F)cc4)nc4ccccc4n23)c1
Result string: class 0

Query string: Field: outcome | Entry: COc1ccc2ccccc2c1/C=C1\SC(=Nc2ccc(O)cc2)NC1=O
Result string: class 1

Query string: Field: outcome | Entry: Cc1ccc(C(=O)C[n+]2cccc3c4ccccc4ccc32)cc1
Result string: class 1

Query string: Field: outcome | Entry: COc1ccc2c(c1)C(Sc1ccc(Br)cc1)c1c(nc(N)c(C#N)c1N)O2 (stereo not drawn)
Result string: class 0

Query string: Field: outcome | Entry: O=C(Nc1nc2ccc([N+](=O)[O-])cc2s1)Nc1ccccc1F
Result string: class 1

Query string: Field: outcome | Entry: Cc1cnc2ccc(Oc3ccccc3-c3ccccc3)nn12
Result string: class 0

Query string: Field: outcome | Entry: Cc1nn(-c2ccccc2)c2ncn(CC(=O)N/N=C/c3ccccc3O)c(=O)c12
Result string: class 0
